Assay: in vivo
Settings: CD1 nude, mouse, 0.5 nmol/mouse, total radioactivity, Intestines uptake
The threshold is 0.2 %ID/g. Values of tissue uptake at 24 h beneath it are tagged Satisfied; values meeting or exceeding it are tagged Not satisfied.

{"COMPOUND": "Cc1ccc(CCCC(=O)NCCOCCOCCOCCOCCC(=O)NC[C@H](NC(=O)CN2CCN(CC(=O)O)CCN(CC(=O)O)CCN(CC(=O)O)CC2)C(=O)N[C@@H](CC(=O)O)C(=O)N[C@@H](CC2CCCCC2)C(=O)N[C@@H](Cc2ccccc2)C(=O)N[C@H](CO)C(=O)N[C@H](CCCNC(=N)N)C(=O)N[C@@H](Cc2ccc(O)cc2)C(=O)N[C@@H](CC(C)C)C(=O)N[C@@H](Cc2c[nH]c3ccccc23)C(=O)N[C@@H](CO)C(N)=O)cc1 [[^177Lu]Lu-uPAR-14, metal not drawn]", "CLASS_NAME": "Not satisfied"}
{"COMPOUND": "Cc1ccc(CCCC(=O)NCCOCCOCCOCCOCCC(=O)NCCCC[C@H](NC(=O)CC[C@H](C(=O)O)N2CCN(CC(=O)O)CCN(CC(=O)O)CCN(CC(=O)O)CC2)C(=O)N[C@@H](CC(=O)O)C(=O)N[C@@H](CC2CCCCC2)C(=O)N[C@@H](Cc2ccccc2)C(=O)N[C@H](CO)C(=O)N[C@H](CCCNC(=N)N)C(=O)N[C@@H](Cc2ccc(O)cc2)C(=O)N[C@@H](CC(C)C)C(=O)N[C@@H](Cc2c[nH]c3ccccc23)C(=O)N[C@@H](CO)C(N)=O)cc1 [[^177Lu]Lu-uPAR-17, metal not drawn]", "CLASS_NAME": "Satisfied"}
{"COMPOUND": "Cc1ccc(CCCC(=O)NCCCCCCCC(=O)NCCCC[C@H](NC(=O)CN2CCN(CC(=O)O)CCN(CC(=O)O)CCN(CC(=O)O)CC2)C(=O)N[C@@H](CC(=O)O)C(=O)N[C@@H](CC2CCCCC2)C(=O)N[C@@H](Cc2ccccc2)C(=O)N[C@H](CO)C(=O)N[C@H](CCCNC(=N)N)C(=O)N[C@@H](Cc2ccc(O)cc2)C(=O)N[C@@H](CC(C)C)C(=O)N[C@@H](Cc2c[nH]c3ccccc23)C(=O)N[C@@H](CO)C(N)=O)cc1 [[^177Lu]Lu-uPAR-12, metal not drawn]", "CLASS_NAME": "Not satisfied"}
{"COMPOUND": "Cc1ccc(CCCC(=O)NCCOCCOCCOCCC(=O)NCCCC[C@H](NC(=O)CN2CCN(CC(=O)O)CCN(CC(=O)O)CCN(CC(=O)O)CC2)C(=O)N[C@@H](CC(=O)O)C(=O)N[C@@H](CC2CCCCC2)C(=O)N[C@@H](Cc2ccccc2)C(=O)N[C@H](CO)C(=O)N[C@H](CCCNC(=N)N)C(=O)N[C@@H](Cc2ccc(O)cc2)C(=O)N[C@@H](CC(C)C)C(=O)N[C@@H](Cc2c[nH]c3ccccc23)C(=O)N[C@@H](CO)C(N)=O)cc1 [[^177Lu]Lu-uPAR-15, metal not drawn]", "CLASS_NAME": "Satisfied"}
{"COMPOUND": "Cc1ccc(CCCC(=O)NCCOCCOCCOCCOCCC(=O)NCCCC[C@H](NC(=O)CN2CCN(CC(=O)O)CCN(CC(=O)O)CCN(CC(=O)O)CC2)C(=O)N[C@@H](CC(=O)O)C(=O)N[C@@H](CC2CCCCC2)C(=O)N[C@@H](Cc2ccccc2)C(=O)N[C@H](CO)C(=O)N[C@H](CCCNC(=N)N)C(=O)N[C@@H](Cc2ccc(O)cc2)C(=O)N[C@@H](CC(C)C)C(=O)N[C@@H](Cc2c[nH]c3ccccc23)C(=O)N[C@@H](CO)C(N)=O)cc1 [[^177Lu]Lu-uPAR-11, metal not drawn]", "CLASS_NAME": "Satisfied"}
{"COMPOUND": "Cc1ccc(CCCC(=O)NCCOCCOCCOCCOCCOCCC(=O)NCCCC[C@H](NC(=O)CN2CCN(CC(=O)O)CCN(CC(=O)O)CCN(CC(=O)O)CC2)C(=O)N[C@@H](CC(=O)O)C(=O)N[C@@H](CC2CCCCC2)C(=O)N[C@@H](Cc2ccccc2)C(=O)N[C@H](CO)C(=O)N[C@H](CCCNC(=N)N)C(=O)N[C@@H](Cc2ccc(O)cc2)C(=O)N[C@@H](CC(C)C)C(=O)N[C@@H](Cc2c[nH]c3ccccc23)C(=O)N[C@@H](CO)C(N)=O)cc1 [[^177Lu]Lu-uPAR-18, metal not drawn]", "CLASS_NAME": "Satisfied"}

Where these numbers come from: paper PMC12920294
